Xanthine oxidase (from bovine milk, Sigma) (Bos taurus (Bovine)): recorded IC50 for assorted compounds
Sequence (P80457 whole entry): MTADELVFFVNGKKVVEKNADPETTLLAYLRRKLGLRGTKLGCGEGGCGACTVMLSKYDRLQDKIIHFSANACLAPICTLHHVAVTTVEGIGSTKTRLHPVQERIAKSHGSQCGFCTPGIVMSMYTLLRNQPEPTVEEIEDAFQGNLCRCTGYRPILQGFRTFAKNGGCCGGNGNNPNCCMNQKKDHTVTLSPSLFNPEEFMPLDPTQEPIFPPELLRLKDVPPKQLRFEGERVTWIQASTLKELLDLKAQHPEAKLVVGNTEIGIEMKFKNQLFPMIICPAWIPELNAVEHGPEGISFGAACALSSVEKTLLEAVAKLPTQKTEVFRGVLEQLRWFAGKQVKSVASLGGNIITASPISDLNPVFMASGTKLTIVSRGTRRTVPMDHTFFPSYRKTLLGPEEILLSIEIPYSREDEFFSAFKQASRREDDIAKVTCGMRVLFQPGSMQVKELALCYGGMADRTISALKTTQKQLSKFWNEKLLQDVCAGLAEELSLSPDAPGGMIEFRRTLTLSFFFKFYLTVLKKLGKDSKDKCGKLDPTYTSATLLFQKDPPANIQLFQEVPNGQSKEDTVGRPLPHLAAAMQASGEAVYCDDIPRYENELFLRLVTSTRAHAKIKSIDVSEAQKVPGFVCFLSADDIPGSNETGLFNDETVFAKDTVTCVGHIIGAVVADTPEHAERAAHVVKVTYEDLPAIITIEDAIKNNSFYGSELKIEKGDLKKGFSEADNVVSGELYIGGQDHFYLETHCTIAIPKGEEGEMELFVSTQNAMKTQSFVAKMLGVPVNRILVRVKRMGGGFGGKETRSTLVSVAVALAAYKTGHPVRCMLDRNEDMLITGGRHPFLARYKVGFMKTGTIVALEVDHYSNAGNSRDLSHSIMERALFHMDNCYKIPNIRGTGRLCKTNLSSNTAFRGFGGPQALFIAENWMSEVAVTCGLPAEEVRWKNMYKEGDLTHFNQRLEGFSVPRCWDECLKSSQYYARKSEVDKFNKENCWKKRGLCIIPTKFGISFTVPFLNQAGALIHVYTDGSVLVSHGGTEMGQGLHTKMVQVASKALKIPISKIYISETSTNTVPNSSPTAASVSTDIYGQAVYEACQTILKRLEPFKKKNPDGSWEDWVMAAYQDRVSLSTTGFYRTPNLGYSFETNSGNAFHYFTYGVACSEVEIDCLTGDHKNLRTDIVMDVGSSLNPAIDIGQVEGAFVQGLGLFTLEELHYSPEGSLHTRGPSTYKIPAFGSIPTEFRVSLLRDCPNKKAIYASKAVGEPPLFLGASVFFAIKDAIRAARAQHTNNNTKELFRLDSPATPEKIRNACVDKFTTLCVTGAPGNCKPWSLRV
reportedMetric: IC50 (nM)

compound	reportedMetric	unitSymbol	measured
N#Cc1cn(-c2ccc(C(=O)O)c(O)c2)c2sc(Br)cc12 [Example 8]	IC50	nM	14
Cc1cc2c(s1)c(C#N)cn2-c1ccc(C(=O)O)c(O)c1 [Example 1]	IC50	nM	13

This collection of values is drawn from patent US9115144B2.
